test_protocol: AUC (0 to infinity) in ICR mouse at 30 mg/kg, po measured upto 48 hrs
Assay type: ADME, organism-based
Parameters: route oral, dose 30 mg/kg, time <=48
recorded_conditions: ICR, in vivo
value_kind: AUC(0-inf)
Put down the number, then write its unit next to it.

compound=Cc1c(F)cccc1NC(=O)Nc1ccc2c(c1O)S(=O)(=O)CC=C2 value_kind=AUC(0-inf) value_reported="3.57 µg·h/mL"

Attention now turns to another entry.
stdin: Which AUC(0-inf) is reported for this compound? Cc1c(F)cccc1NC(=O)Nc1ccc2c(c1O)S(=O)(=O)CCC2
stdout: 0.229 µg·h/mL

----------
tgt: C-X-C chemokine receptor type 2 (Homo sapiens)
Sequence (P25025 whole entry): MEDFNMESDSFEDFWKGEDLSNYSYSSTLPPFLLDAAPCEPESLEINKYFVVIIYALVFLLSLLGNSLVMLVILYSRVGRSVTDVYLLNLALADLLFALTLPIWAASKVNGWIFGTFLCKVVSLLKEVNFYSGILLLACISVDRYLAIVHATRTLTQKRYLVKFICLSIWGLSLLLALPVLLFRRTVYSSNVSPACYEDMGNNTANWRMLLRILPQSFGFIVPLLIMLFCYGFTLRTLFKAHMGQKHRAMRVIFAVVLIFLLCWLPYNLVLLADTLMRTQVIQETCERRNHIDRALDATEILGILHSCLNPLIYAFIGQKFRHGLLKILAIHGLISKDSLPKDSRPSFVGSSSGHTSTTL
test_protocol: Antagonist activity at human CXCR2 expressed in HEK293 cells assessed as inhibition of CXCL8-induced beta-arrestin recruitment preincubated for 30 mins followed by addition of agonist incubated for 90 mins by beta arrestin assay
pIC50: −log10 of the molar value.
Label rule, in plain words: pIC50 of 6 and up is satisfied, under 6 is not satisfied.

compound=O=C(Nc1ccccc1Cl)Nc1ccc2c(c1O)S(=O)(=O)CC=C2 class=satisfied

stdin: Is reported pIC50 greater than or equal to 6 here: Cc1c(Cl)cccc1NC(=O)Nc1ccc2c(c1O)S(=O)(=O)CCC2
stdout: not satisfied

stdin: Dear colleague, could you confirm whether O=C(Nc1ccccc1C(F)(F)F)Nc1ccc2c(c1O)S(=O)(=O)CCC2 has pIC50 at or above 6?
stdout: not satisfied

stdin: In plain terms: is recorded pIC50 at least 6 for Cc1ccc(NC(=O)Nc2ccc3c(c2O)S(=O)(=O)CC=C3)cc1 ?
stdout: satisfied

stdin: Determine whether measured pIC50 meets or exceeds 6 for O=C(Nc1ccccc1F)Nc1ccc2c(c1O)S(=O)(=O)CC=C2
stdout: satisfied

stdin: Evaluate Cc1c(F)cccc1NC(=O)Nc1ccc2c(c1O)S(=O)(=O)CCC2 : pIC50 at minimum 6?
stdout: satisfied

stdin: Record O=C(Nc1ccccc1Cl)Nc1ccc2c(c1O)S(=O)(=O)CCC2 ; criterion: pIC50 no lower than 6. Met?
stdout: satisfied

----------
Exercise: state measured CL/F for each of the compounds provided.
test_protocol: Clearance in ICR mouse at 30 mg/kg, po measured upto 48 hrs
Format: ADME, organism-based
recorded_conditions: ICR, in vivo
Give bare numbers, in mL/min/kg.

compound=Cc1c(F)cccc1NC(=O)Nc1ccc2c(c1O)S(=O)(=O)CC=C2 value_units=mL/min/kg value_reported=143

stdin: I'd like to know its CL/F. The compound in question is Cc1c(F)cccc1NC(=O)Nc1ccc2c(c1O)S(=O)(=O)CCC2
stdout: 2190

----------
test_protocol: Oral bioavailability in ICR mouse at 30 mg/kg measured upto 48 hrs
Type: ADME, organism-based
recorded_conditions: in vivo
Task for the reader: assign each of the following compounds its reported bioavailability.
Form entry: enter the amount, then its unit.

Below: 2 compounds and their reported bioavailability.
compound=NS(=O)(=O)c1c(Cl)ccc(NC(=O)Nc2cccc(Cl)c2Cl)c1O value_reported=35%
compound=Cc1c(F)cccc1NC(=O)Nc1ccc2c(c1O)S(=O)(=O)CC=C2 value_reported=23.2%

stdin: GET /values?readout=bioavailability&item= Cc1c(F)cccc1NC(=O)Nc1ccc2c(c1O)S(=O)(=O)CCC2
stdout: 6.1%

----------
test_protocol: Half life in ICR mouse at 30 mg/kg, po measured upto 48 hrs
Type: ADME, organism-based
recorded_conditions: ICR, in vivo
value_kind: half-life (min)
Numbers only, in min.

compound=Cc1c(F)cccc1NC(=O)Nc1ccc2c(c1O)S(=O)(=O)CC=C2 value_kind=half-life value_reported=230

Now take the following compound into account.
stdin: // query half-life value for entry Cc1c(F)cccc1NC(=O)Nc1ccc2c(c1O)S(=O)(=O)CCC2
stdout: 296

All figures here come from ChEMBL document CHEMBL5032530.
